# EC50 (read off the curve) values compiled below
- assayed.target: T1, human CD70 expressed on the surface of cells (human, UniProt P32970 1-193)
- T1 construct: whole, on cells; also called cell surface expressed CD70; CD70 on cells
- T1 sequence (looked up): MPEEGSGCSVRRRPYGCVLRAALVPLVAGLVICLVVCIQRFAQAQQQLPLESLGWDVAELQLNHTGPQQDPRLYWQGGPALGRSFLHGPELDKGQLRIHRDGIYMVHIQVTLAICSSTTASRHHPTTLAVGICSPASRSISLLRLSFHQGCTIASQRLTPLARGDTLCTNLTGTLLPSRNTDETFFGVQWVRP
- procedure.text: flow cytometry on 786-O cells, anti-human Fc-FITC

# binder, EC50 (read off the curve)
rows = [
    ("9D1 chimeric llama-human mAb (antibody, human IgG1, V domains shown, also called mAb 9D1) VH: EVQLVESGGGLVQPGGSLRLSCAASGFTFSVYYMNWVRQAPGKGLEWVSDINNEGGTTYYADSVKGRFTISRDNAKNTLTLQMNSLKPEDTALYYCVRDAGYSNHVPIFDSWGQGTQVIVAS VL: QAVVTQEPSLSVSPGGTVTLTCGLSSGSVTSSHYPGWYQQTPGQAPRLLIFNTNSRHSGVPSRFSGSISGNKAALTITGAQPEDEADYYCALLNIDDGSTMFGGGTHLTVLG", "~0.03 µg/mL"),
    ("9G2 chimeric llama-human mAb (antibody, human IgG1, V domains shown) VH: QVQLVESGGGLMQPGGSLRLSCAASGFTFSSSAMSWVRQAPGKGLEWVSSIYSDSSYTYYADSVKSRFTISTDNAKNTLYLQMNSLKPDDTAVYYCAGSSDYEGSFASWGQGTQVTVSS VL: QSVVTQPPSLSASPGSSVRLTCTLSSGNSVGNYDISWYQQKAGSPPRYLLYYYSDSVKHQGSGVPSRFSGSSDASANAGLLLISGLQPEDEADYYCSAYKSGSHVFGGGTKLTVLG", "~0.1 µg/mL"),
    ("5F4 chimeric llama-human mAb (antibody, human IgG1, V domains shown) VH: EVQVQESGGGLVHPGGSLKLSCAASGFTFDTYAMSWVRQAPGKGLEWVSAISWSGGETFYAESMKGRFTISRNNAKNTLYLQMNSLKSEDTAVYYCARGMGLAEGLTDWGQGTQVTVSS VL: QAVVTHPPSLSASPGSSVRLTCTLISGDNIGGYDISWYQQKTGSPPRYLLYYYSDSYKHQSSGVPSRFSGSKDASANAGLLLISGLQSEDEADYYCSAYKSGSYKAPVFGGGTHLTVLG", "~0.2 µg/mL"),
]

The value of EC50 (read off the curve) measured for the binder 4D2 chimeric llama-human mAb (antibody, human IgG1, V domains shown) VH: QVQLQESGPGLVKPSQTLSLACTVSGGSITTSYYYWSWIRQPPGKGLEWMGAIGSRGSTYYSPSLKTRTSISRDTSKNQFTLQLSSVTPEDTAVYYCARVTGEITYNSGSYYYTLNLFDYWGQGTQVTVSS VL: QSVLTQPPSLSASPGSSVRLTCTLSSGNSVGNYDISWYQQKAGSPPRYLLYYYSDSYKNQGSGVPSRFSGSKDPSANAGLLLISGLQAEDEADYYCSVSNSGTYKPVFGGGSKLTVLG turned out to be ~0.06 µg/mL
